experiment: soluble fraction after stress (log2 fold change); higher = more stays soluble; pooled small domains, quantitative proteomics; settings: stress: pH 4
Decision: soluble fraction (log2) >= -0.4 yields Condition met, all other cases yield Condition not met.

{"columns": ["RESIDUE CODES", "CAT"],
 "data": [
  ["HMINKIANLSAELRMEGLPVSIRSTQAAVKIYMDLGGDDRNLLKTALMSIYVKDRYDIPKFNKVFEKLFA", "Condition met"],
  ["HMQLKKDTILSYIEEKLIDSYNSNKGFTTQEISVALNMQRTNVSAILNNLVKENKLVKTKGKPVRYFLSG", "Condition not met"],
  ["HMTKIDYSINQIYSLRNIENITIVLKDKRSFTGKILKIYWQNGSKIILFTTETRNYKFKEYEISEIYKS", "Condition not met"],
  ["HMLVGRDPQALILGSMPSEKSLEEDEYYAHPRNRFWSLMNWLLAGNKTRPAYKTGIEILSSHGIALWV", "Condition not met"],
  ["HMEEDPVISQAQRQALFKLAHDHFGQEEGNKVILRLIGEHGLRSTTNMTASVYKTVTDALIQVIESMVEG", "Condition not met"],
  ["HMTYTMVAYGSQGDAVRQLQSELNRHGYQLDEDGVFGKKTRAAVRDYQKKNSLRLDGIAGDETWGSLLA", "Condition not met"],
  ["HMGQYSTTLDKIENSLFGFTYSNEAENTRINRIENKVYGKTSTSQTSTRIAKLKKDLSVDEMG", "Condition met"],
  ["HMQVSDANQLTDVVKSIIKQYPVEVEKYKSGKKALFGFFMGKVMENLKGKSNPKILKNVLTEILD", "Condition met"]
]}

###

assay: soluble fraction after stress (log2 fold change); higher = more stays soluble; pooled small domains, quantitative proteomics; details: stress: pH 4
OUTCOME MEASURE: soluble fraction (log2)

{"columns": ["RESIDUE CODES", "OUTCOME MEASURE", "ASSAY VALUE"],
 "data": [
  ["HMIVDINDVRIDKYIADNTDYSRNLILNLIKNGDILVNDSKIKPSYKVKQGDKITINNVKTD", "soluble fraction (log2)", -0.284],
  ["HMSPSQFRSKSLLVEINFASRQMDGEILQGDYAGKRLSELTEAEVQELTAWLKQSDRESFVLLQAYLLRSG", "soluble fraction (log2)", -1.17],
  ["HMAHSWEAIRVKLQQIIDEEDKTKPLNDDQIKEKLAEAGIPNLARRTVAKYRKLLNIPTARFRKR", "soluble fraction (log2)", 0.208],
  ["HMDINIETLNYYVGKAKIPLSELRISVKNIDLFLSGEKQPTFNQLSSIAKKLNIPTGLLLLDESIEV", "soluble fraction (log2)", -1.34],
  ["HMGMFNENLRFLRQKRQMSQQAFASILGIPRTTYSEYEKGNTEPNLKLLIRLSELLDVSLDNLISDDLTHN", "soluble fraction (log2)", -0.642],
  ["HMVERLVVSPGAGVFAPNKAIANGTRISVGDVLGMVGEQEVRSLFDGVLQSFISVDGERLTAHQPVAWLRT", "soluble fraction (log2)", -0.111],
  ["HMNEPMITEVKRINYGSIKEIAKNLDVFKGKNGTVIIDERTNTLILTDLSENIEKMLWSIEITD", "soluble fraction (log2)", -0.855],
  ["HMLEEIDYPEEQLQLLFAWSRDHVQSTPPGLPVVDDHVWHILVRGYGATDQRTEAFALLASYAGFP", "soluble fraction (log2)", -0.722]
]}
